Test: NCI Yeast Anticancer Drug Screen. Data for the bub3 strain (AID 167)
Conditions: S. cerevisiae bub3 mutant strain, at 50.0 µM, active compounds read high
Compounds without any hit were thinned out: in the full panel of roughly 79,000, 15% have a hit.
ASSAY READOUT: growth inhibition (%)
State the answer as a number, implicitly in %.

COMPOUND: CC[C@@]1(O)C[C@H](OC2CC(N(C)C)C(OC3CC(O)C(OC4CC(O)C(O)C(C)O4)C(C)O3)C(C)O2)c2c(cc3c(c2O)C(=O)c2c(O)ccc(O)c2C3=O)[C@H]1C(=O)OC (stereo partly specified)
growth inhibition (%): 1.95
//
COMPOUND: CC1=CC(C)(C)NC(=S)N1c1ccc(C)cc1S(=O)(=O)O
growth inhibition (%): 7.95
//
COMPOUND: CSc1ccc(C(N)=O)cn1
growth inhibition (%): -22.1

# next compound below
Q) Provide growth inhibition value for the following compound: COC1=CC(=O)C(C2CC(=O)c3c(O)cc(O)cc3O2)=CC1=O (stereo unspecified)
A) -20.8

* * *

Assay: NCI Yeast Anticancer Drug Screen. Data for the cln2 rad14 strain (AID 165);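 note: 0% = growth equal to vehicle treated cultures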
Settings: S. cerevisiae cln2 rad14 strain, at 50.0 µM
Compounds without any hit were thinned out: in the full panel of roughly 79,000, 15% have a hit. Activity calls are given as the source filed them. No stated cut-off is given here; in the data, active means growth inhibition above about 70%; inactive means the rest.
Log the outcome using a class from label 1 = active, label 0 = inactive

Solved cases (5 shown):
MOLECULE: CN(C)/C=C(/N=C(C#N)C#N)C1OCCO1
LABEL CLASS: label 0
--
MOLECULE: CCc1c(CNc2ccc(Cl)c(Cl)c2)ccc2nc(N)nc(N)c12
LABEL CLASS: label 1
--
MOLECULE: CC(Oc1ccccc1)C(=O)Nc1ccc(F)cc1 (configuration not stated)
LABEL CLASS: label 0
--
MOLECULE: Cn1c(N)c(-n2[nH]c(=O)n(-c3ccccc3)c2=O)c(=O)n(C)c1=O
LABEL CLASS: label 0
--
MOLECULE: Cc1cc(C(O)CNCCn2cnc3c2c(=O)n(C)c(=O)n3C)ccc1O (configuration not stated)
LABEL CLASS: label 0

Next, consider the following molecule.
Q) So what was the verdict on COC1OC(CO)C(O)C(NC(=O)OCc2ccccc2)C1O (configuration not stated) in this test?
A) label 0

* * *

Listed next: entries and their corresponding growth inhibition.
Experiment: NCI Yeast Anticancer Drug Screen. Data for the mlh1 rad18 strain (AID 175)
Conditions: S. cerevisiae mlh1 rad18 strain growth inhibition; at 50.0 µM; active compounds read high
Compounds without any hit were thinned out: in the full panel of roughly 79,000, 15% have a hit.
Answer in %, number only, no unit symbol.

Solved cases below.
COMPOUND: S=C(Cc1cccc2ccccc12)N1CCN(c2ccc(Cl)cc2)CC1
RESULT UNIT: %
READOUT VALUE: -0.55

COMPOUND: N#CCCN(CCC#N)c1ccc(/C=C2/C=C(c3ccccc3)OC2=O)cc1
RESULT UNIT: %
READOUT VALUE: 11.3

Q) Please supply the value of reported growth inhibition for the item CC[N+](C)(CC)C(Cc1ccccc1)c1ccccc1 (configuration not stated)
A) 4.3

Q) Tell me measured growth inhibition for Nc1ncnc2c1ncn2C1OC(C(O)CO)C(O)C1N (configuration not stated) please.
A) -23.6

Q) Retrieve growth inhibition measured for `CCCCCCC1OCCO1` and print it.
A) 15.1

Q) Provide one value: measured growth inhibition of CCN(CC)CCOC(=O)c1cc(C(C)O)nc2ccccc12 (configuration not stated)
A) -7.1

Q) Report growth inhibition for `Cc1cc2c(C)nn(Cc3ccccc3Cl)c2c(C#N)c1C`
A) 44.4

Q) Hello, please tell me recorded growth inhibition for this one: COC1(OC)C(Cl)=C(Cl)C2C1C1(Cl)C(Cl)=C(Cl)C2(Cl)C1(OC)OC (configuration not stated)
A) 5.3

Q) Give recorded growth inhibition. `Cc1ccc(C)c(NC(=O)Nc2ccc(Nc3ccccc3)cc2)c1`
A) 33
